Cited source: ChEMBL document CHEMBL5532747

- assay protocol: Half life in C57BL/6 mouse at 10 mg/kg,po administration and measured upto 24 hrs
- Type: ADME, organism-based
- condition label: in vivo
reported metric: half-life (h)

> print(dat)
                              line.notation  obs.value
1  CC(C)NC(=O)c1ccc(Nc2nccc(-c3ccc4nc(N5CCCC5)ncc4c3)n2)cc1        2.7

---

Recorded half-life by entry
- assay protocol: Microsomal stability in human liver microsomes assessed as half life
- Type: ADME, Microsome
reported metric: half-life (min)

> print(dat)
                               line.notation  unit.abbrev  sign  obs.value
 1  CC(C)NC(=O)c1ccc(Nc2nccc(-c3ccc4nc(N5CCOCC5)ncc4c3)n2)cc1          min     =         16
 2  c1cc(-c2ccc3nc(N4CCCC4)ncc3c2)nc(Nc2ccc(N3CCOCC3)cc2)n1          min     =         69
 3  c1cc(-c2ccc3nc(N4CCCC4)ncc3c2)nc(Nc2ccc(N3CCNCC3)cc2)n1          min     >        100
 4  CC(C)NC(=O)c1ccc(Nc2nccc(-c3ccc4nc(N5CCCC5)ncc4c3)n2)cn1          min     =         61
 5  CC(C)NC(=O)c1ccc(Nc2ncc(F)c(-c3ccc4nc(N5CCCC5)ncc4c3)n2)cc1          min     =         44
 6  OCCN1CCC(c2ccc(Nc3nccc(-c4ccc5nc(N6C[C@@H]7C[C@H]6CO7)ncc5c4)n3)cn2)CC1          min     =         20
 7  OCCN1CCC(n2cc(Nc3ncc(F)c(-c4ccc5nc(N6CCOCC6)ncc5c4)n3)cn2)CC1          min     =         97
 8  c1cc(-c2ccc3nc(N4CCCC4)ncc3c2)nc(Nc2cnn(C3CCNCC3)c2)n1          min     =         23
 9  c1cc(-c2ccc3nc(N4CCOCC4)ncc3c2)nc(Nc2cnn(C3CCNCC3)c2)n1          min     =         84
10  CC(C)NC(=O)c1ccc(Nc2nccc(-c3ccc4nc(N5CCCC5)ncc4c3)n2)cc1          min     =         45
11  c1cc(-c2ccc3nc(N4CCOCC4)ncc3c2)nc(Nc2ccc(N3CCNCC3)cc2)n1          min     =         12
